Test: self-splicing fitness, log relative to wild type (ln ratio); higher = more splicing; Tetrahymena group I intron in knt gene, E. coli kanamycin selection, DiMSum; sequences stand for … in CUCUCU…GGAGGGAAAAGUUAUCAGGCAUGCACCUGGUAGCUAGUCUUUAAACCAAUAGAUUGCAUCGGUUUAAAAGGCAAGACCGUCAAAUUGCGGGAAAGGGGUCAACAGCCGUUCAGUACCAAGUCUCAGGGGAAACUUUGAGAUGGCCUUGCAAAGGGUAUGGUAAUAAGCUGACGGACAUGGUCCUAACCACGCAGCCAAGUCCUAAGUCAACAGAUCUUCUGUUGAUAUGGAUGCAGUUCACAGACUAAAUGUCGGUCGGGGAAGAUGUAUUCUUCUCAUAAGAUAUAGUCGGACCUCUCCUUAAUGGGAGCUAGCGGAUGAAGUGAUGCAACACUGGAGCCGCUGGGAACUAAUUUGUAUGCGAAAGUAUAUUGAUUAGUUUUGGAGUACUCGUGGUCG;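 also: selection with 25 µg/mL kanamycin versus none on LB agar overnight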
Conditions: 30 °C
endpoint-label: self-splicing fitness (ln)

UCUGAGCAAUAUUACGUACC | -3.19
UCGGAGCAAUAUUACGUCAC | -3.68
AGAGAGCAAUAUUACGUGUU | -3.21
GCUGAGCAAUAUUACGACCU | -2.35
UAAUAGCAAUAUUACGUACA | -1.05

* * *

Test: self-splicing fitness, log relative to wild type (ln ratio); higher = more splicing; Tetrahymena group I intron in knt gene, E. coli kanamycin selection, DiMSum; sequences stand for … in CUCUCU…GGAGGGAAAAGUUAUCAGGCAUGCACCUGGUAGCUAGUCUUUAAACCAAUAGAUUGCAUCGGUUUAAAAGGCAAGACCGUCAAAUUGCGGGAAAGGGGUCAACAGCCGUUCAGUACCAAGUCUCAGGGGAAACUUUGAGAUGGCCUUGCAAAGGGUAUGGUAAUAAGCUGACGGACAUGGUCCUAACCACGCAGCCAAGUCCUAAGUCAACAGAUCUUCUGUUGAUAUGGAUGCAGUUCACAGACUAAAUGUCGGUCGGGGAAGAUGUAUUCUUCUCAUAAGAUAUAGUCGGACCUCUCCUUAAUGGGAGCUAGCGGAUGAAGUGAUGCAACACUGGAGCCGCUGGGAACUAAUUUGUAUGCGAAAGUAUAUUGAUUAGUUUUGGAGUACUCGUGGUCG
Details: 37 °C
// reported self-splicing fitness (ln) per item
endpoint-label: self-splicing fitness (ln)

CUACAGCAAUAUUACGUGGG | -2.61
CCGGAGCAAUAUUACGUAGU | -3.22
UGUUAGCAAUAUUACGAUGG | -0.474
CAUCAGCAAUAUUACGCAAA | -2.48
GUAUAGCAAUAUUACGCUUG | -1.41
GUAUAGCAAUAUUACGCAUA | -0.525
GGGGAGCAAUAUUACGCGUU | -1.04
CCCAAGCAAUAUUACGUCUA | -2.92
AUGUAGCAAUAUUACGAGGU | -1.84

* * *

Assay: self-splicing fitness, log relative to wild type (ln ratio); higher = more splicing; Tetrahymena group I intron in knt gene, E. coli kanamycin selection, DiMSum; sequences stand for … in CUCUCU…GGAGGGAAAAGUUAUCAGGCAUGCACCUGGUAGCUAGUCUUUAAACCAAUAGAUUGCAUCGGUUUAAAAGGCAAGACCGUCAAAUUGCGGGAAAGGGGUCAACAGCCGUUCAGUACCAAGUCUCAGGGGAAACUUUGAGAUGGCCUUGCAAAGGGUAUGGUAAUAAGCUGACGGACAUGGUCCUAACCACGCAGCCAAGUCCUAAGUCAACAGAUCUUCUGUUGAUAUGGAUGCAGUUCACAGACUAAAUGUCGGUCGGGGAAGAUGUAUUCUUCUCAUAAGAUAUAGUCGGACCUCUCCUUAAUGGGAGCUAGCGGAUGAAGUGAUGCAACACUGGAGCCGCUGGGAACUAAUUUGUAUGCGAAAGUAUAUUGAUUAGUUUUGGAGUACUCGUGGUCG
Conditions: 37 °C
endpoint-label: self-splicing fitness (ln)

UUACAGCAAUAUUACGCUGU | -2.37
AGGAAGCAAUAUUACGACGA | -0.0243
CUGGAGCAAUAUUACGGGUA | -1.77
ACGCAGCAAUAUUACGCUAC | -2.59
ACGCAGCAAUAUUACGAGGG | -2.77
GCAGAGCAAUAUUACGCUUU | -3.01
GCUAAGCAAUAUUACGCAAA | -0.986
ACCGAGCAAUAUUACGCAGG | -2.65
ACAUAGCAAUAUUACGUCCC | -0.222
GUUAAGCAAUAUUACGGUCC | 0.191
CUGGAGCAAUAUUACGGAAU | -2.05
GAACAGCAAUAUUACGGCAG | -3.02
GCUGAGCAAUAUUACGCAAU | -1.9
AAGGAGCAAUAUUACGGUAG | -2.75
UCAGAGCAAUAUUACGUCCA | -2.25
CAAGAGCAAUAUUACGGCAU | -2.02
UCCGAGCAAUAUUACGGGAA | -1.65
GCUUAGCAAUAUUACGCGCU | -2.47
UCUUAGCAAUAUUACGUAGC | -1.98
AUAUAGCAAUAUUACGUCGC | -1.31
CUCAAGCAAUAUUACGCUGA | -2.41
UUCCAGCAAUAUUACGCGGA | -3.39
UCGAAGCAAUAUUACGUAGC | -2.17

* * *

Measured self-splicing fitness (ln), listed per entry.
Assay: self-splicing fitness, log relative to wild type (ln ratio); higher = more splicing; Tetrahymena group I intron in knt gene, E. coli kanamycin selection, DiMSum; sequences stand for … in CUCUCU…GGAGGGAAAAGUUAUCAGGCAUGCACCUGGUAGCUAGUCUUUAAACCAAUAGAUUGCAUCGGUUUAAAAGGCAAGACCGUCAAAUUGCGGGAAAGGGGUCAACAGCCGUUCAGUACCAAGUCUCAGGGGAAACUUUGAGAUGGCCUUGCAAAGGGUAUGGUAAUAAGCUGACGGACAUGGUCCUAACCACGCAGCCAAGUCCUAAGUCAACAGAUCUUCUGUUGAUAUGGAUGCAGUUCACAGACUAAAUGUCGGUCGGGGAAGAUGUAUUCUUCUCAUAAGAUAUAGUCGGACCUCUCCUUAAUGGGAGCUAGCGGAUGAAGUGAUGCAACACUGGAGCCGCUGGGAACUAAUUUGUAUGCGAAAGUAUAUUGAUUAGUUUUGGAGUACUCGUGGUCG
Conditions: 37 °C
endpoint-label: self-splicing fitness (ln)

AGCGAGCAAUAUUACGCACA | -1.06
GCUAAGCAAUAUUACGACUA | -0.865
CGAAAGCAAUAUUACGCUAU | -2.4
CUUCAGCAAUAUUACGCACC | -2.61

* * *

Assay: self-splicing fitness, log relative to wild type (ln ratio); higher = more splicing; Tetrahymena group I intron in knt gene, E. coli kanamycin selection, DiMSum; sequences stand for … in CUCUCU…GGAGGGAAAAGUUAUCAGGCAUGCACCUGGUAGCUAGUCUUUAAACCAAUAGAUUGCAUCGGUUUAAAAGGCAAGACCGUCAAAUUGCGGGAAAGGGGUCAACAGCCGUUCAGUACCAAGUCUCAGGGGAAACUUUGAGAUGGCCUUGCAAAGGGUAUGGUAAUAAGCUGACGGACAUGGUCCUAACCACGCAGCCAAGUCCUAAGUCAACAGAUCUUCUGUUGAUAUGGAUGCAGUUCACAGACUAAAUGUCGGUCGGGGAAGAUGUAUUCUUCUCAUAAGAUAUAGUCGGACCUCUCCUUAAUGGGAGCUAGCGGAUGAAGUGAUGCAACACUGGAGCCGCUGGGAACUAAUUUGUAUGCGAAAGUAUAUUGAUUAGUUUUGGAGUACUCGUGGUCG
Details: 30 °C
endpoint-label: self-splicing fitness (ln)

UAAUAGCAAUAUUACGUAUU | -4.09
CCUAAGCAAUAUUACGAUCC | -3.83
UAAGAGCAAUAUUACGUUUC | -3.76
CGCGAGCAAUAUUACGAGUU | -3.3
UAAAAGCAAUAUUACGCAUU | -3.33
UUUCAGCAAUAUUACGUCCU | -2.99
UCUCAGCAAUAUUACGAGAU | -4.62
UCUGAGCAAUAUUACGUGAG | -1.86
GCAAAGCAAUAUUACGGAUC | -1.26
UCAAAGCAAUAUUACGCGGU | -2.75
AAUAAGCAAUAUUACGAUUU | -0.134
UACAAGCAAUAUUACGUAUU | -4.29
UAGGAGCAAUAUUACGAACG | -0.534

* * *

Assay: self-splicing fitness, log relative to wild type (ln ratio); higher = more splicing; Tetrahymena group I intron in knt gene, E. coli kanamycin selection, DiMSum; sequences stand for … in CUCUCU…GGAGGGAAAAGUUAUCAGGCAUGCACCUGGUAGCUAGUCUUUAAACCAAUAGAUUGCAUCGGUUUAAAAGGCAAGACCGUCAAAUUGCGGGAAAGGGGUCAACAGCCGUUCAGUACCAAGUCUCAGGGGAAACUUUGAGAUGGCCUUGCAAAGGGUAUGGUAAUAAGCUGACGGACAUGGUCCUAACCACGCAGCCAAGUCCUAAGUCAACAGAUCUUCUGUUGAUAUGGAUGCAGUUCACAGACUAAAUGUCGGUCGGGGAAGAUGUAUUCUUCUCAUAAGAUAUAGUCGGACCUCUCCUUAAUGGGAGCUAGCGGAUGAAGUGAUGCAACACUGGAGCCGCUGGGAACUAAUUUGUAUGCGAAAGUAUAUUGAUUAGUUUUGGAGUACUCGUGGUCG
Conditions: 30 °C
endpoint-label: self-splicing fitness (ln)

AUGGAGCAAUAUUACGCACG | -2.3
CAAUAGCAAUAUUACGCGAU | -3.99
UCCCAGCAAUAUUACGACGA | -0.00629
CUAGAGCAAUAUUACGAUUU | -3.17
UACGAGCAAUAUUACGGGAG | -3.43
AGUUAGCAAUAUUACGUUCU | -0.403
UCUAAGCAAUAUUACGAGGU | -2.8
UGACAGCAAUAUUACGUCAC | -3.74
